molecular target: Tyrosine-protein phosphatase non-receptor type 7 (Homo sapiens) (UniProt P35236); experiment: HePTP tyrosine phosphatase activity blockers – biochemical, absorbance, leukemia target, primary screen (AID 521); conditions: recombinant HePTP phosphatase activity, OD absorbance; at 20 µM; hits give high values;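 further: plate controls were vehicle for no effect and reference inhibitor for full effect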
Sequence (P35236 whole entry, looked up): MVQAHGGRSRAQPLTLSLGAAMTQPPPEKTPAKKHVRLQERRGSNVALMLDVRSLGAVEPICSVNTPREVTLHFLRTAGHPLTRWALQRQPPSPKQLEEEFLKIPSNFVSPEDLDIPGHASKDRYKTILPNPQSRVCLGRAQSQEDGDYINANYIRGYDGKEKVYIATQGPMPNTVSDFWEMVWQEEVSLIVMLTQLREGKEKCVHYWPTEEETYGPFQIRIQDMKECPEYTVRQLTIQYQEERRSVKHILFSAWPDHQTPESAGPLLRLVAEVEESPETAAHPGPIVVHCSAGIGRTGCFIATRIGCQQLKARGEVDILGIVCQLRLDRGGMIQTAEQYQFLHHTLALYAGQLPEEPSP
About 730 (0.66%) of roughly 110,000 compounds were called active. For the sample, actives were picked, then their nearest neighbours and some compounds at random.
property: inhibition (%)
Kindly provide the numeric value in % only, without the unit symbol.

Task: # query: inhibition of entry CCOC(=O)c1c(Nc2ccc(C)cc2)csc1C
Result: 5.4

Task: Look up inhibition for this compound: O=C1/C(=C/c2ccc(-c3ccc(Cl)cc3C(=O)O)o2)Sc2ccccc21
Result: 99

Task: // inhibition lookup, key: Cc1ccc(S(=O)(=O)N(CC(O)CN(C)C)c2cccc3ccccc23)cc1 (stereo not drawn)
Result: 104

Task: Give its inhibition value. Item: O=[N+]([O-])c1ccc(C2SCCN2S(=O)(=O)c2ccc3ccccc3c2)cc1 (stereo not drawn)
Result: 6.4

Task: Any idea what inhibition was measured for CCCC(NC(=O)c1ccccc1)C(=O)OCC(=O)Nc1sc2c(c1C(=O)OCC)CCCC2 (stereo not drawn) ?
Result: 1.3

Task: Fill blank: measured inhibition of the compound O=[N+]([O-])c1ccc(C2Nc3ccc(OC(F)(F)F)cc3C3C=CCC32)cc1 (stereo not drawn) is ____.
Result: -9.1

Task: What does the data say about its inhibition? Entry: Cc1[nH]n(-c2ccccc2)c(=O)c1C(=O)C(F)(F)F
Result: 3.1

Task: What inhibition value was documented for this compound, CC(=O)NC1=NC(=O)/C(=C\c2ccc(-c3cc([N+](=O)[O-])ccc3C)o2)S1 ?
Result: -13.7

Task: Name the reported inhibition value associated with the compound COc1ccc(CC(=O)Nc2ccc(-c3ccc(NC(=O)Cc4ccc(OC)cc4)c(OC)c3)cc2OC)cc1
Result: -17.3

Task: Sample O=C(COc1ccc2ccccc2c1Br)c1ccc(Br)cc1 — what was its inhibition?
Result: 3

Task: Which inhibition value belongs to COc1ccc(NCN2C(=O)CSC2=O)cc1Cl ?
Result: 5.1

Task: Given the compound CCOc1ccccc1C(=O)Nc1ccc(Cl)cc1[N+](=O)[O-] , what is its reported inhibition?
Result: -5.6

Task: Fill blank: measured inhibition of the compound O=C(Nc1nccs1)C(c1ccccc1)c1ccccc1 is ____.
Result: -5.8

Task: Given the compound Cc1[nH]n(-c2ccccc2)c(=O)c1/C=N/N(C)C , what is its reported inhibition?
Result: -5.9

Task: Please look up its inhibition: COc1ccc(OC)c(N(CC(=O)Nc2cccc(Cl)c2)S(=O)(=O)c2ccc(OC)c(OC)c2)c1
Result: -8.4

Task: Would you kindly share the measured inhibition for Cc1ccc(N2NC(=O)/C(=C/c3ccc(O)c(O)c3)C2=O)cc1C ?
Result: -5.6

Task: I'd like to know its inhibition. The compound in question is ONC(=Nc1ccc2c(c1)OCO2)C(=Nc1ccc2c(c1)OCO2)NO
Result: -7.5

---

target: Tyrosine-protein phosphatase non-receptor type 7 (Homo sapiens) (UniProt P35236); assay: HePTP tyrosine phosphatase activity blockers – biochemical, absorbance, leukemia target, primary screen (AID 521); conditions: recombinant HePTP phosphatase activity, OD absorbance; at 20 µM; hits give high values;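 further: plate controls were vehicle for no effect and reference inhibitor for full effect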
In all, about 110,000 compounds went through this assay and about 730 (0.66%) were called active. This is one part of a sample in which actives are shown more often than they occur.
Measured inhibition accompanies every entry in the list below.
Your answer is read as %, so omit the unit and give the number.

Reference set (5 entries):
- molecule: "CCN1C(=O)/C(=C\\c2cn(CCOc3ccc(Br)cc3)c3ccccc23)SC1=S"
  inhibition, %: 2.4
- molecule: "Cc1ccc(C(=O)N/C(=C\\c2sccc2C)C(=O)NCC(C)C)cc1"
  inhibition, %: 8.2
- molecule: "CCOc1ccc2cc(S(=O)(=O)NCC3CCCO3)ccc2c1 (configuration not stated)"
  inhibition, %: 0.1
- molecule: "CCOc1ccc(-c2cc(C(=O)Nc3cccc([N+](=O)[O-])c3)c3ccccc3n2)cc1"
  inhibition, %: 11.5
- molecule: "Cc1cccc(C(=O)Nc2cccc(NC(=O)COc3ccccc3Cl)c2)c1"
  inhibition, %: 105

Task: Suppose we examine the molecule CC(C)(C)c1ccc(OCC(=O)Nc2cccc(NC(=O)c3ccccc3)c2)cc1 ; what inhibition value has been reported?
Result: -1.7

Task: Name the reported inhibition value associated with the molecule CCOC(=O)c1ccc(N2NC(=O)/C(=C/c3ccc(Br)cc3)C2=O)cc1
Result: 6.5

Task: GET /values?readout=inhibition&item= CC(=O)c1ccc(NS(=O)(=O)c2ccccc2[N+](=O)[O-])cc1
Result: 3

---

Listed below: inhibition values for each entry.
biological target: Tyrosine-protein phosphatase non-receptor type 7 (Homo sapiens); test: HePTP tyrosine phosphatase activity blockers – biochemical, absorbance, leukemia target, primary screen (AID 521); conditions: recombinant HePTP phosphatase activity, OD absorbance; at 20 µM; hits give high values;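 further: plate controls were vehicle for no effect and reference inhibitor for full effect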
In all, about 110,000 compounds went through this assay and about 730 (0.66%) were called active. This is one part of a sample in which actives are shown more often than they occur.
Note: unit % is implicit; provide only the numeric part.

// worked examples, inhibition included
- compound: "COC(=O)c1ccccc1NC(=O)COc1cccc2ccccc12"
  unit.annotation: "%"
  readout.value: 3.5
- compound: "Clc1ccccc1OCCCN1CCOCC1"
  unit.annotation: "%"
  readout.value: -7.9
- compound: "Cc1ccc2ccc3cccc(S(=O)(=O)O)c3c2n1"
  unit.annotation: "%"
  readout.value: 2.1
- compound: "O=C(NCc1ccco1)Nc1ccncc1"
  unit.annotation: "%"
  readout.value: -1.8
- compound: "C/C(=C\\C(=O)c1ccc(Br)cc1)Nc1ccccc1O"
  unit.annotation: "%"
  readout.value: -2

Task: Endpoint output: inhibition of O=C(Nc1cccc([N+](=O)[O-])c1)c1ccc2c(c1)C(=O)N(N1C(=O)c3ccccc3C1=O)C2=O . Value?
Result: -5.9

Task: Give the measured inhibition of COc1cccc(C(O)c2nc3ccccc3n2C)c1 (configuration not stated) .
Result: -6.5

Task: Endpoint output: inhibition of CN(N)c1nc(N2CCCC2)nc(N2CCCC2)n1 . Value?
Result: -2.9

Task: Fill in: inhibition of c1ccc2c(OCCCN3CCOCC3)cccc2c1 is ___
Result: -6.5

Task: Dear colleague, I am looking for the recorded inhibition of the following compound: Cc1oc2ccc(OCC(=O)c3ccccc3)cc2c1C(=O)O
Result: 6.3

Task: Dear colleague, I am looking for the recorded inhibition of the following compound: CCOc1ccc(NC(=O)Nc2cc(C)on2)cc1
Result: -4.8

Task: Quick one: inhibition for COc1ccc(C(=O)Nc2nc3ccc(C)cc3s2)cc1Br ?
Result: 4.5

Task: Returns the measured inhibition for the input compound. Input: COc1ccc(Cl)cc1C(=O)Nc1ccc2c3c(cccc13)CC2
Result: -1.6

Task: So what does the record say about inhibition for Cc1cc(C)cc(NC(=O)CN2C(=O)c3ccccc3C2=O)c1 ?
Result: 4.6

Task: Entry CCOc1cccc(-c2cc(C(=O)N3CCCCCC3)c3ccccc3n2)c1 : reported inhibition = ?
Result: -11.5

Task: I'd like to know its inhibition. The compound in question is Cc1ccc(N2C(=O)NC(=O)/C(=C\c3cccc(C)c3)C2=O)cc1
Result: 4.7

Task: Returns the measured inhibition for the input compound. Input: O=C(/C=C/c1ccc([N+](=O)[O-])cc1)N1CCc2ccccc2C1
Result: -1.1

Task: I am curious: what inhibition value has been reported for O=C(Cc1c(O)c2ccccc2[nH]c1=O)NCc1ccc(Cl)cc1 ?
Result: -5.2

Task: May I ask what inhibition has been recorded for O=C(Nc1cccc(Br)c1)C(=O)NC1CCCC1 ?
Result: -7.9

Task: Given the compound CCOc1ccc(C(=O)Nc2ccc(O)c(-c3nc4ccccc4o3)c2)cc1[N+](=O)[O-] , what is its reported inhibition?
Result: 7.1

Task: For the compound shown here, COc1cc(/C=C2\SC(=S)NC2=O)cc(Br)c1OCc1c(C)no[n+]1[O-] , give the reported inhibition.
Result: -10.3

Task: Which inhibition value is on record for O=C(Nc1cccc(I)c1)c1ccc2c(c1)C(=O)N(CC1CCCO1)C2=O (configuration not stated) ?
Result: 6.2

---

inhibition by entry:
biological target: Tyrosine-protein phosphatase non-receptor type 7 (Homo sapiens) (UniProt P35236); test: HePTP tyrosine phosphatase activity blockers – biochemical, absorbance, leukemia target, primary screen (AID 521); settings: recombinant HePTP phosphatase activity, OD absorbance; at 20 µM; hits give high values;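 further: plate controls were vehicle for no effect and reference inhibitor for full effect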
The campaign covered roughly 110,000 compounds. About 730 (0.66%) were called active. Shown is part of a subset that was picked to be rich in actives.
Enter your answer as a number in %; do not include the unit.

- molecule: "Cc1ccccc1NC(=O)c1cnn(-c2ccccc2)c1NC(=O)c1ccco1"
  inhibition, %: 7.2
- molecule: "Cc1cc(C)c2nc3s/c(=C\\c4ccc(N(C)C)cc4)c(=O)n3c2c1"
  inhibition, %: 8.6
- molecule: "O=[N+]([O-])c1ccc(N2CCN(CCO)CC2)cc1NC(c1ccccc1)c1ccccc1"
  inhibition, %: -10.6

Task: Given the entry COc1ccccc1C(=O)NC(NC(=O)c1ccccc1OC)c1ccc(Br)cc1 , report its measured inhibition.
Result: 7.8

Task: What inhibition value was documented for this molecule, O=C(N=Nc1c(O)[nH]c2ccc(F)cc12)c1ccccc1O ?
Result: -14.6

Task: So what's the measured inhibition for this one? Cc1cccc(N2CCN(C(=O)C(Cl)(Cl)Cl)CC2)c1C
Result: 5.3

Task: Please look up its inhibition: CN(C)c1ccc(/C=C2\SC(=S)N(c3cccc(C(=O)O)c3)C2=O)cc1
Result: 104

Task: GET /values?readout=inhibition&item= COc1ccc(C2SCCN2C(=O)c2cc3ccccc3oc2=O)cc1 (centres undefined)
Result: -6.8

Task: Fill in the blank: the reported inhibition of Cc1ccc(-c2cc(C(=O)N3CC(C)CC(C)C3)c3ccccc3n2)cc1C (centres undefined) is ____.
Result: -17

Task: Any idea what inhibition was measured for O=C(NCC1CCCO1)c1cc(-c2ccccc2)nc2ccccc12 (centres undefined) ?
Result: -0.5
